Every entry's value here was drawn from paper PMC12040169.

Assay: in vitro
Condition details: human, hela cells, % viability
Quantity: viability at 28.5 h, 10 µM (%)
Please reply with the bare figure in % and do not write the unit itself.

Solved entries (count: 5):
Compound: O=C(/C=C/c1cccnc1)Nc1cccc(N2CCNCC2)c1 [CBK034128T]
viability at 28.5 h, 10 µM (%): 109
//
Compound: CSc1ccc(-n2ncc(-c3cccc(C(F)(F)F)c3)n2)cc1 [CBK112666]
viability at 28.5 h, 10 µM (%): 93.6
//
Compound: O=C1CN(c2nc(-c3ccncc3)nc3ccccc23)CCN1 [CBK305805]
viability at 28.5 h, 10 µM (%): 91.9
//
Compound: CC(C)C(=O)N[C@H]1CC[C@]2(CC1)CNC(=O)c1ccccc1O2 [CBK281675]
viability at 28.5 h, 10 µM (%): 103
//
Compound: O=C(Cc1ccccc1)Nc1ccc(NC(=O)c2ccc(-c3ccccc3)cc2)cc1 [CBK268821]
viability at 28.5 h, 10 µM (%): 87.2

Query string: Respond only with viability at 28.5 h, 10 µM recorded for O=C(N[C@H]1CO[C@H]2[C@@H]1OC[C@@H]2n1cc(CC2CCCCC2)nn1)C1CC1 [CBK289509]
Result string: 92.2

Query string: State its viability at 28.5 h, 10 µM for this compound: CCS(=O)(=O)Nc1cc(Cl)ccc1C [CBK111350]
Result string: 79.1

Query string: Please indicate viability at 28.5 h, 10 µM recorded for Oc1ccccc1-c1n[nH]c(=S)n1-c1ccc(OC(F)(F)F)cc1 [CBK288384]
Result string: 85.9

Query string: // fetch viability at 28.5 h, 10 µM given entry O=C(OCc1ccccc1)N1CCC(C2OCc3cc(-c4ccc(C(=O)N5CCCC5)cc4)ccc3O2)CC1 (centres unmarked) [CBK153260]
Result string: 108

Query string: For the compound Cc1c(-c2ccc(Cl)cc2Cl)nc2ccccc2c1C(=O)NCCCc1ccccc1 [CBK262635] , give its reported viability at 28.5 h, 10 µM.
Result string: 89.4

Query string: Quote viability at 28.5 h, 10 µM reported for N#CCn1c(-c2nonc2N)nc2ccccc21 [CBK050974] please.
Result string: 92.3

----------
In this section we review reported viability at 28.5 h, 0.00375 µM values for a set of compounds.
Assay: in vitro
Set-up: Viability of infected HeLa host cells, resazurin conversion, bulk resorufin fluorescence relative to DMSO
Condition details: human, hela cells; bulk resorufin, mean of 3
// note: answer is a bare numeric in %

Compound: CCOc1ccc2nc(NC(=N)N)nc(C)c2c1 [c37e]
viability at 28.5 h, 0.00375 µM (%): 85.5

Query string: Tell us which viability at 28.5 h, 0.00375 µM value is on record for Fc1cccc(F)c1OCCOc1nc(N2CCNCC2)ccc1C(F)(F)F [c21e]
Result string: 84

Query string: Quickly give me recorded viability at 28.5 h, 0.00375 µM for O=C(Nc1ccccc1N1CCCNCC1)c1ccc2ccccc2c1 [c29e]
Result string: 108

----------
Assay: in vitro
Condition details: human, hela cells, % viability
Listed here: items and their measured viability at 28.5 h, 10 µM.
Give just the numeric value; % need not be written.

Smiles representation: Cc1ccc2c(c1)N(CCO)/C(=C/c1sc3ccccc3[n+]1CCCS(=O)(=O)[O-])S2
viability at 28.5 h, 10 µM, %: 93.5
--
Smiles representation: COc1cc(CNC(=O)c2ccc(-c3ccc(NC(C)=O)cc3)nc2)cc(OC)c1OC
viability at 28.5 h, 10 µM, %: 100
--
Smiles representation: Cc1c(-c2noc(-c3ccc4c(c3)OCO4)n2)nnn1Cc1ccccc1
viability at 28.5 h, 10 µM, %: 116

Query string: Retrieve viability at 28.5 h, 10 µM measured for O=c1c2ccccc2nc2n1CCN(Cc1ccc(F)c(F)c1)CC2 and print it.
Result string: 96.6

Query string: For the compound O=S(=O)(NCc1ccccc1)c1ccc(Cl)c(S(=O)(=O)NCc2ccccc2)c1 , give its reported viability at 28.5 h, 10 µM.
Result string: 81.9

Query string: Specify measured viability at 28.5 h, 10 µM for O=C(O)c1cc(-c2ccc(OC(F)F)cc2)[nH]n1 .
Result string: 87.1

Query string: Return viability at 28.5 h, 10 µM (reported value) for this compound: COc1ccccc1C(=O)NCCCc1nc2ccccc2[nH]1
Result string: 87.1

Query string: Check the records and state viability at 28.5 h, 10 µM for CC(C)(C)OC(=O)N1CCC2(CC1)NC(=O)c1cc(-c3cccc(S(C)(=O)=O)c3)ccc1O2
Result string: 102

Query string: Find the measured viability at 28.5 h, 10 µM of COc1ccccc1-c1c(O)n[nH]c1CCC1CCCC1 and report it.
Result string: 97.5

----------
In this section, each of the compounds is paired with its reported viability at 28.5 h, 10 µM.
Assay: in vitro
Condition details: human, hela cells, % viability
Value expressed in %; do not type the unit.

Sample answers from the record:
Compound: CCC(Sc1nc(N)cc(=O)[nH]1)C(=O)Nc1ccc2ccccc2c1 (stereo not drawn)
viability at 28.5 h, 10 µM (%): 98.9
--
Compound: Cc1c(C)n(O)[n+]([O-])c1-c1ccccc1 [CBK264510N]
viability at 28.5 h, 10 µM (%): 103
--
Compound: CCN(Cc1ccccc1)C(=O)NCC1COc2ccccc2O1 (stereo not drawn)
viability at 28.5 h, 10 µM (%): 103
--
Compound: O=C(Cc1ccccn1)NC(Cc1cccs1)c1ccccn1 (stereo not drawn)
viability at 28.5 h, 10 µM (%): 93.1
--
Compound: O=C(NCCCn1ccnc1)c1ncoc1-c1cccs1
viability at 28.5 h, 10 µM (%): 92.7

Query string: Answer with the recorded viability at 28.5 h, 10 µM for the compound listed here: Cc1ccccc1C1(O)CCN(CC(O)c2ccccc2)CC1 (stereo not drawn)
Result string: 83.7

Query string: Provide only the value of recorded viability at 28.5 h, 10 µM for COC(=O)c1c(NC(=S)Nc2cnccn2)sc2c1CCC(C)C2 (stereo not drawn)
Result string: 94.2

Query string: Supply measured viability at 28.5 h, 10 µM of Cn1c(N2CCCC(C(N)=O)C2)nc2ccccc21 (stereo not drawn) in your reply.
Result string: 105

Query string: Note viability at 28.5 h, 10 µM for the compound shown: CN(C(=O)C1CC1)c1nc2c(s1)CCc1c-2cnn1C
Result string: 75.7

Query string: Tell me measured viability at 28.5 h, 10 µM for NC(CC(=O)O)c1cccc([N+](=O)[O-])c1 (stereo not drawn) [CBK262903C] please.
Result string: 96.9

----------
Assay: in vitro
Condition details: human, hela cells, % viability
Readings of viability at 28.5 h, 10 µM for the listed compounds
Express your answer in %, writing the number without its unit.

Compound: COc1ccc(SCC(=O)O)cc1
viability at 28.5 h, 10 µM, %: 93.7

Compound: CCCc1ccc(OCC(=O)Nc2ccccc2C(N)=O)cc1
viability at 28.5 h, 10 µM, %: 88.7

Compound: CN(C)S(=O)(=O)N(CC(=O)NCc1ccccc1Cl)c1ccccc1
viability at 28.5 h, 10 µM, %: 103

Compound: OC(CN1CCN(c2ccc(C(F)(F)F)cn2)CC1)c1ccc2c(c1)OCCO2 (centres unmarked)
viability at 28.5 h, 10 µM, %: 104

Shifting focus to the compound that follows.
Query string: Note down viability at 28.5 h, 10 µM recorded for COc1ccc(OC)c(C(O)c2coc3ccc(O)c(CN(C)C)c23)c1 (centres unmarked)
Result string: 114

----------
Assay: in vitro
Condition details: human, hela cells, % viability
Quantity: viability at 28.5 h, 10 µM (%)
Express your answer in %, writing the number without its unit.

// below: answered compounds
Compound: CN1CCN(CCC(=O)N/N=C/c2ccccn2)CC1 [CBK261501]
viability at 28.5 h, 10 µM, %: 114
--
Compound: FC(F)(F)c1ccc(OCc2ccc(-c3ccccc3)cc2)nc1 [CBK115830]
viability at 28.5 h, 10 µM, %: 94.6
--
Compound: O=C(O)CSc1cccc([N+](=O)[O-])c1 [CBK110160]
viability at 28.5 h, 10 µM, %: 101
--
Compound: Cc1cc(Cl)c(S(=O)(=O)Nc2ccon2)cc1OCC(=O)NC1CCCCC1 [CBK266785]
viability at 28.5 h, 10 µM, %: 93.5
--
Compound: CCn1c(CN2CCC(n3nc(C)cc3C)CC2)nc2ccccc21 [CBK281615]
viability at 28.5 h, 10 µM, %: 88.5

Query string: Look up viability at 28.5 h, 10 µM of Cc1cn(CC(=O)NCC2(c3cccc(F)c3)CCCC2)nn1 [CBK281436] and report it.
Result string: 89.7

Query string: Using the record for COc1ccc(C(=O)Nc2ccc(C3c4ccsc4CCN3C(C)=O)cc2)cc1 (stereo not shown) [CBK286465] , state its measured viability at 28.5 h, 10 µM.
Result string: 85

Query string: Please give the documented viability at 28.5 h, 10 µM of O=C(O)C(Cc1c[nH]c2ccccc12)NCC1CCCCC1 (stereo not shown) [CBK287238]
Result string: 110

Query string: Give viability at 28.5 h, 10 µM for the following compound: CC(C)N1CCC(C(=O)NC(=O)Nc2ccc3c(c2)OCCO3)CC1 [CBK034799]
Result string: 93.6
